- ASSAY COMMENT: Cytotoxicity against human U937 cells after 2 days by Cell titer Glo luminescent assay
- Format: cell-based, U-937
RESULT TYPE: CC50 at 48 h (µM)
Lab book: enter the figure in µM, no units written.

// CC50 at 48 h value for C[C@@H]1CCO[C@H]2Cn3cc(C(=O)NCc4ccc(F)cc4F)c(=O)c([O-])c3C(=O)N12.[Na+] [DOLUTEGRAVIR SODIUM] : 7

---

- ASSAY COMMENT: Cytotoxicity against human IM9 cells after 2 days by Cell titer Glo luminescent assay
- Type: cell-based, IM-9
RESULT TYPE: CC50 at 48 h (µM)
Lab book: enter the figure in µM, no units written.

// CC50 at 48 h value for C[C@@H]1CCO[C@H]2Cn3cc(C(=O)NCc4ccc(F)cc4F)c(=O)c([O-])c3C(=O)N12.[Na+] [DOLUTEGRAVIR SODIUM] : 4.8

---

- Test system: Human immunodeficiency virus 1
- ASSAY COMMENT: Antiviral activity against Human immunodeficiency virus 1 3B harboring reverse transcriptase M184V mutant infected in human MT2 cells assessed as inhibition of virus induced cytopathic effect selected on day 14 after 4 passages by PCR analysis
- Type: functional, organism-based
- PROTOCOL CONDITIONS: MT2, 336 h
RESULT TYPE: EC50 (nM)
Lab book: enter the figure in nM, no units written.

Short answer on Human immunodeficiency virus 1 for Nc1ccn([C@@H]2CS[C@H](CO)O2)c(=O)n1 [LAMIVUDINE] , EC50: 800

---

- ASSAY COMMENT: Cytotoxicity against human MOLT4 cells after 2 days by Cell titer Glo luminescent assay
- Assay type: cell-based, MOLT-4
RESULT TYPE: CC50 at 48 h (µM)
Lab book: enter the figure in µM, no units written.

// CC50 at 48 h value for C[C@@H]1CCO[C@H]2Cn3cc(C(=O)NCc4ccc(F)cc4F)c(=O)c([O-])c3C(=O)N12.[Na+] [DOLUTEGRAVIR SODIUM] : 15

---

Catalogue of pEC50 values
- Test system: Human immunodeficiency virus 1
- ASSAY COMMENT: Antiviral activity against Human immunodeficiency virus 1 3B infected in human MT2 cells assessed as inhibition of virus induced cytopathic effect measured after 2 to 3 days by PCR
- Type: functional, organism-based
Scale: negative log10 of molar concentration, which is what pEC50 denotes.

Below are worked cases with known answers.
Nc1ccn([C@@H]2CS[C@H](CO)O2)c(=O)n1	6.10
C[C@@H]1CCO[C@H]2Cn3cc(C(=O)NCc4ccc(F)cc4F)c(=O)c([O-])c3C(=O)N12.[Na+] [DOLUTEGRAVIR SODIUM]	9.59

For the next question, use this compound.
// pEC50 value for Cc1nnc(C(=O)NC(C)(C)c2nc(C(=O)NCc3ccc(F)cc3)c(O)c(=O)n2C)o1 : 9.59

---

- ASSAY COMMENT: Cytotoxicity against human MT4 cells after 2 days by Cell titer Glo luminescent assay
- Type: cell-based
RESULT TYPE: CC50 at 48 h (µM)
Lab book: enter the figure in µM, no units written.

// CC50 at 48 h value for C[C@@H]1CCO[C@H]2Cn3cc(C(=O)NCc4ccc(F)cc4F)c(=O)c([O-])c3C(=O)N12.[Na+] [DOLUTEGRAVIR SODIUM] : 14

---

- ASSAY COMMENT: Cytotoxicity against PHA-stimulated human PBMC after 2 days by Cell titer Glo luminescent assay
- Type: cell-based
RESULT TYPE: CC50 at 48 h
State the value with its unit after it.

// CC50 at 48 h value for C[C@@H]1CCO[C@H]2Cn3cc(C(=O)NCc4ccc(F)cc4F)c(=O)c([O-])c3C(=O)N12.[Na+] [DOLUTEGRAVIR SODIUM] : 52 µM
